- Test system: HEK-293T
- Method Summary: Multiplex assay against HEK293T
- Type: toxicity, cell-based
- Measurement Context: human, 12 h, 1 µM, compound concentration 1 uM
Readings of Population Normal (%) for the listed molecules
Readout Label: Population Normal (%)

> print(dat)
                                   molecule  assay.value
1  COCCNc1cc(NC(=O)N2CCCc3cc(CN4CCN(C)CC4=O)c(C=O)nc32)ncc1C#N [FGF401]          100
2              Nc1nccc(-c2ccn3c(N)nccc23)n1          100
3  CC(/C=C1\SC(=S)N(CCCC(=O)Nc2ccc(C(=O)O)c(O)c2)C1=O)=C\c1ccccc1           93
